# System: T-24
# protocolText: Inhibitory concentration against bladder T24 cell line
# Assay type: functional, cell-based
# details: Homo sapiens
parameterMeasured: pIC50
The read-out pIC50 is expressed as -log10 of concentration in moles per litre.

Requested read-out: pIC50. Entry: Cc1ccc(S(=O)(=O)Nc2ccc(/C=C/C(=O)Nc3ccccc3N)cc2)cc1
5.10

Requested read-out: pIC50. Entry: Cc1ccc(NS(=O)(=O)c2ccc(/C=C/C(=O)Nc3ccccc3N)cc2)cc1
5.19

Requested read-out: pIC50. Entry: COc1ccc(S(=O)(=O)Nc2ccc(/C=C/C(=O)NO)cc2)cc1OC
5.70

Requested read-out: pIC50. Entry: CC(/C=C/C(=O)NO)=C\[C@@H](C)C(=O)c1ccc(N(C)C)cc1
5.40

Requested read-out: pIC50. Entry: Nc1ccccc1NC(=O)c1ccc(CNC(=O)OCc2cccnc2)cc1
5.60

Requested read-out: pIC50. Entry: COc1ccc(S(=O)(=O)Nc2ccc(/C=C/C(=O)Nc3ccccc3N)cc2)cc1
5.10

----------
# testedSystem: Histone deacetylase 1 (Homo sapiens)
# Sequence (Q13547 whole entry): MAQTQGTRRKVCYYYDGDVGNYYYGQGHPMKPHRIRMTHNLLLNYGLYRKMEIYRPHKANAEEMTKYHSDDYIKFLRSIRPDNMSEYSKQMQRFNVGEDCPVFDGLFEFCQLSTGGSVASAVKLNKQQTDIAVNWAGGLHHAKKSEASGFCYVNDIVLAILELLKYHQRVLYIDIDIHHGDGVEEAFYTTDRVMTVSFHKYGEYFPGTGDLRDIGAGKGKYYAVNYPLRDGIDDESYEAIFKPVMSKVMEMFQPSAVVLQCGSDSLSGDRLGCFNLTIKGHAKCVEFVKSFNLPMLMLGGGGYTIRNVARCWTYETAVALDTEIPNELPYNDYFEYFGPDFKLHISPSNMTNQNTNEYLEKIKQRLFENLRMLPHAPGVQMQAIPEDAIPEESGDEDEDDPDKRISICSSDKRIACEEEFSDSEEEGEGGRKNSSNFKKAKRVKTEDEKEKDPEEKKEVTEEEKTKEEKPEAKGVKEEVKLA
# protocolText: Inhibitory activity on partially purified recombinant human Histone deacetylase 1 (HDAC-1)
The threshold is 0.4 µM. Values of IC50 beneath it are tagged Fulfilled; values meeting or exceeding it are tagged Not fulfilled.

is_below(IC50, 0.4 µM) for Nc1ccccc1NC(=O)/C=C/c1ccc(S(=O)(=O)Nc2ccc(-c3ccccc3)cc2)cc1 ?
Not fulfilled

is_below(IC50, 0.4 µM) for COc1ccc(NS(=O)(=O)c2ccc(/C=C/C(=O)NO)cc2)cc1OC ?
Fulfilled

is_below(IC50, 0.4 µM) for CN(C)c1cccc2c(S(=O)(=O)Nc3ccc(/C=C/C(=O)NO)cc3)cccc12 ?
Fulfilled

is_below(IC50, 0.4 µM) for COc1ccc(NC(=O)Nc2ccc(/C=C/C(=O)NO)cc2)cc1OC ?
Not fulfilled

is_below(IC50, 0.4 µM) for O=C(O)/C=C/c1ccc(NS(=O)(=O)c2ccc(-c3ccccc3)cc2)cc1 ?
Not fulfilled

is_below(IC50, 0.4 µM) for COc1ccc(NS(=O)(=O)c2ccc(/C=C/C(=O)Nc3ccccc3N)cc2)cc1OC ?
Not fulfilled

is_below(IC50, 0.4 µM) for O=C(/C=C/c1ccc(NS(=O)(=O)c2cccc3oc4ccccc4c23)cc1)NO ?
Fulfilled

is_below(IC50, 0.4 µM) for Cc1ccc(NS(=O)(=O)c2ccc(/C=C/C(=O)Nc3ccccc3N)cc2)cc1 ?
Not fulfilled

is_below(IC50, 0.4 µM) for COc1ccc(S(=O)(=O)Nc2ccc(/C=C/C(=O)Nc3ccccc3N)cc2)cc1 ?
Not fulfilled

is_below(IC50, 0.4 µM) for Nc1ccccc1NC(=O)/C=C/C#Cc1ccc(NS(=O)(=O)c2ccccc2)cc1 ?
Not fulfilled

is_below(IC50, 0.4 µM) for Nc1ccccc1NC(=O)/C=C/c1ccc(NS(=O)(=O)c2cccc3ccccc23)cc1 ?
Not fulfilled

is_below(IC50, 0.4 µM) for Cc1ccc(NS(=O)(=O)c2ccc(/C=C/C(=O)NO)cc2)cc1 ?
Fulfilled

is_below(IC50, 0.4 µM) for O=C(/C=C/C#Cc1cccc(NS(=O)(=O)c2ccccc2)c1)NO ?
Fulfilled

----------
For each of the compounds below, state its pIC50.
# System: A549
# protocolText: Inhibitory concentration against lung A549 cell line
# Type: functional, cell-based
# details: Homo sapiens
The read-out pIC50 is expressed as -log10 of concentration in moles per litre.

Requested read-out: pIC50. Entry: COc1ccc(S(=O)(=O)Nc2ccc(/C=C/C(=O)NO)cc2)cc1OC
5.70

Requested read-out: pIC50. Entry: Cc1ccc(S(=O)(=O)Nc2ccc(/C=C/C(=O)Nc3ccccc3N)cc2)cc1
5.10

Requested read-out: pIC50. Entry: CC(/C=C/C(=O)NO)=C\[C@@H](C)C(=O)c1ccc(N(C)C)cc1 [TRICHOSTATIN]
5.35

Requested read-out: pIC50. Entry: Nc1ccccc1NC(=O)c1ccc(CNC(=O)OCc2cccnc2)cc1 [ENTINOSTAT]
5.10

Requested read-out: pIC50. Entry: COc1ccc(S(=O)(=O)Nc2ccc(/C=C/C(=O)Nc3ccccc3N)cc2)cc1
5.00

Requested read-out: pIC50. Entry: Cc1ccc(NS(=O)(=O)c2ccc(/C=C/C(=O)Nc3ccccc3N)cc2)cc1
5.02

Requested read-out: pIC50. Entry: Nc1ccccc1NC(=O)/C=C/c1ccc(NS(=O)(=O)c2ccc(-c3ccccc3)cc2)cc1
4.74
